B1: SEPHS2 (parent)
chain: KASGRFGLLQGTSAETSGGLLICL

- Variants of: B1
- test description: protein stability index of a GFP-peptide fusion (GPS, HEK-293T) (PSI 1-6); higher = more stable;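 note: lentivirally expressed fusions sorted by FACS into six bins by GFP to DsRed ratio, PSI derived from sequencing read proportions per bin multiplied by bin number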
- assay context: c terminus: a fixed tail appended
property measured: protein stability index
One number for each entry.

Please review the following examples before continuing.
- mutation label: "G4L"
  reported measurement: 2.01
- mutation label: "L9R"
  reported measurement: 2.98

// for each variant in input: emit protein stability index
1. E15A
2. G11K

1: 2.02; 2: 3.04

Look up protein stability index for the entries below, preserving their order.
1. L8A
2. Q10N
3. K1N

[2.02, 2.95, 1.95]

Data credit: the supplement of paper PMC10567573
